Attribution: patent US8686156B2

Assay: logP determination by HPLC (formic acid method)
Format: physicochemical
Conditions: reversed-phase HPLC column (C18), reversed-phase column (C 18), 55° C., acidic range (pH 3.4), read-out: log P(HCOOH)
value.kind: chromatographic logP

(1) Clc1nc(-c2cccnc2)sc1-c1cccc(-c2ncccn2)n1
(2) Clc1cnc(-c2cccc(-c3sc(-c4cccnc4)nc3Cl)n2)nc1
Between 1 and 2 , whose measured chromatographic logP reads higher? Mark your selection by writing its label.
2
